molecular target: hERG (Homo sapiens, UniProt Q12809); assay: SAFETYScan Ion Channel, Blocker; format: cell-based; details: read-out: RC50 (IC50)
Sequence (Q12809 whole entry): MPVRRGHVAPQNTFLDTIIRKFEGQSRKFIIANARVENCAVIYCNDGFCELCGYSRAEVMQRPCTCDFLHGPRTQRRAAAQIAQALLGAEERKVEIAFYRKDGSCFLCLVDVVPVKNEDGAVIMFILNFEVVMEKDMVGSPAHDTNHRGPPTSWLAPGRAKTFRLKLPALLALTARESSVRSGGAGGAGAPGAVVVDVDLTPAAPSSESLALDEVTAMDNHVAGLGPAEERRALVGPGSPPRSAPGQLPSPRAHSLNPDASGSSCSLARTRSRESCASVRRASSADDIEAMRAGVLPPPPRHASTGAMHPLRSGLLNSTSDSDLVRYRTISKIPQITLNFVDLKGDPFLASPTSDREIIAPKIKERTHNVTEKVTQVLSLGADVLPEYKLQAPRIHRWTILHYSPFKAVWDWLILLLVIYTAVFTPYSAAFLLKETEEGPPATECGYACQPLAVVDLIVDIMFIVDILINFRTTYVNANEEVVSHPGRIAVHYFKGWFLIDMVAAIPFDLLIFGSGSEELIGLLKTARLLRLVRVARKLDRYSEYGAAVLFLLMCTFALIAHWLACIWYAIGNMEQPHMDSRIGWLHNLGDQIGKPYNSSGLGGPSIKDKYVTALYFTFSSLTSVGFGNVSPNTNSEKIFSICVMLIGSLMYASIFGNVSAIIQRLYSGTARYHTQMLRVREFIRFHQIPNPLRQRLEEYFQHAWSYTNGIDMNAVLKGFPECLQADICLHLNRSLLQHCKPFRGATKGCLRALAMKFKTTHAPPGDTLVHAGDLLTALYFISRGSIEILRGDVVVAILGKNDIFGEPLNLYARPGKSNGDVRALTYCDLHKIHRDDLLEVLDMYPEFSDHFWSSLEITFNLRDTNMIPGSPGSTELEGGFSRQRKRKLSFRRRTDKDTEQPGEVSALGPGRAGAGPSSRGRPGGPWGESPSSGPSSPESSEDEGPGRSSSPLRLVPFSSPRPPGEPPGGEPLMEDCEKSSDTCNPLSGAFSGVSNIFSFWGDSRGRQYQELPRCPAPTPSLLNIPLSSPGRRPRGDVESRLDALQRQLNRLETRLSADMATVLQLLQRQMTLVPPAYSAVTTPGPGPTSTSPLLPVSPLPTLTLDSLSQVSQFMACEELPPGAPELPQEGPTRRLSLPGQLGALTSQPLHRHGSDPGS
pIC50: −log10 of the molar value.
MEASUREMENT NAME: pIC50

>>> print(df.to_string())
                                   molecule  recorded_result
0  C[C@H]1C[C@@H](O)CN(c2ncc(Cl)c(Nc3ccc4c(c3)c3c(c(=O)n4C)OCC(F)(F)[C@H](C4CC4)N3)n2)C1 [12a CCT373566]             5.84

* * *

biological target: UniProtKB P41143; test: SAFETYScan GPCR cAMP, Antagonist; details: read-out: RC50 (IC50)
Sequence (P41143 whole entry, species assumed): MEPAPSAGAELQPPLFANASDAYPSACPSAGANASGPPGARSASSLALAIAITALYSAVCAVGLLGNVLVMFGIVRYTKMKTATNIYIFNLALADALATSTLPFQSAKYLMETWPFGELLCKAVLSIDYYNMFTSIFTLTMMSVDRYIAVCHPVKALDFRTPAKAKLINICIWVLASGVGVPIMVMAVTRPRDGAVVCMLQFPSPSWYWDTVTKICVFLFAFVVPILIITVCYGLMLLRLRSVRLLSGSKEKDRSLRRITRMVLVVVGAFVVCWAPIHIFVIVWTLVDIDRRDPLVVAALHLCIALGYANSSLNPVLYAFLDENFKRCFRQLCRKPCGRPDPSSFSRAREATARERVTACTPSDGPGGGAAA
MEASUREMENT NAME: IC50

>>> df
                                   compound  measurement_name  recorded_result
0  C[C@H]1C[C@@H](O)CN(c2ncc(Cl)c(Nc3ccc4c(c3)c3c(c(=O)n4C)OCC(F)(F)[C@H](C4CC4)N3)n2)C1 [12a CCT373566]              IC50          > 10 µM

* * *

biological target: endogenous BCL6 in OCI-Ly1 cells (Homo sapiens, UniProt P41182); test: cell-based; settings: read-out: MSD degrader assay [OCI-Ly1] DC50; geometric mean; OCI-Ly1 cells, 2 h incubation
MEASUREMENT NAME: DC50 (nM)

>>> df
                                   compound   u  inequality_operator  recorded_result
0  C[C@H]1C[C@@H](O)CN(c2ncc(Cl)c(Nc3ccc4c(c3)c3c(c(=O)n4C)OCC(F)(F)[C@H](C4CC4)N3)n2)C1 [12a CCT373566]  nM                    =              0.7
1  CC(=O)N[C@H]1C[C@@H](C)CN(c2ncc(Cl)c(Nc3ccc4c(c3)c3c(c(=O)n4C)OCC(F)(F)[C@H](C4CC4)N3)n2)C1 [10b]  nM                    >             2000
2  C[C@H]1CCCN(c2ncc(Cl)c(Nc3ccc4c(c3)c3c(c(=O)n4C)OCC(F)(F)[C@H](C4CC4)N3)n2)C1 [15a]  nM                    =              6.3

* * *

biological target: UniProt P14416; experiment: SAFETYScan GPCR cAMP, Antagonist; conditions: read-out: RC50 (IC50)
Sequence (P14416 1-414 isoform P14416-2): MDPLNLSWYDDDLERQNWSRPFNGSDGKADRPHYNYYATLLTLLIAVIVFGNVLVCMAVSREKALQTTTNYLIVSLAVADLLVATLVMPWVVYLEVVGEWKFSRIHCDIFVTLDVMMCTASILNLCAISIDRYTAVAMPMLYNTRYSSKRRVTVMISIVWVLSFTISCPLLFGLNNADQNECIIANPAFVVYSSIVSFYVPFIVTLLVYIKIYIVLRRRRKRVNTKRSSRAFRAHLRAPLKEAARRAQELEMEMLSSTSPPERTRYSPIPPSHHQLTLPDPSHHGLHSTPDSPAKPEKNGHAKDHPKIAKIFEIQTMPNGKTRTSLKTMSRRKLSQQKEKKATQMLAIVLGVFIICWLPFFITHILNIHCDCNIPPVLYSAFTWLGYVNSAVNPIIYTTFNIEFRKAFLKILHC
MEASUREMENT NAME: IC50

>>> print(df.to_string())
                                   compound  recorded_result
0  C[C@H]1C[C@@H](O)CN(c2ncc(Cl)c(Nc3ccc4c(c3)c3c(c(=O)n4C)OCC(F)(F)[C@H](C4CC4)N3)n2)C1 [12a CCT373566]          > 10 µM

* * *

target: EDNRA (Homo sapiens); assay: SAFETYScan GPCR Calcium Flux, Antagonist; details: read-out: RC50 (IC50)
Sequence (P25101 21-427): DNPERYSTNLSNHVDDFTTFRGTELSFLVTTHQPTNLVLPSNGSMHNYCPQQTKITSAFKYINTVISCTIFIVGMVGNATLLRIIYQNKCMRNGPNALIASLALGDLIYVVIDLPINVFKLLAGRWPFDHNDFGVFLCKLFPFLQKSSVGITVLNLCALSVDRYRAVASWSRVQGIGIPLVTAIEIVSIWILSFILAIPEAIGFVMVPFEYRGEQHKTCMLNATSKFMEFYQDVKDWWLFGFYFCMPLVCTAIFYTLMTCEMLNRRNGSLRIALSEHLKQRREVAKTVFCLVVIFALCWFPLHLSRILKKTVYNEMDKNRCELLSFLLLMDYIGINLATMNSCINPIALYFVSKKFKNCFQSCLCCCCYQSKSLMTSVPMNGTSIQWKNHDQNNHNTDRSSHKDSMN
pIC50: −log10 of the molar value.
MEASUREMENT NAME: pIC50

                                   molecule          study_target  measurement_name  recorded_result
0  C[C@H]1C[C@@H](O)CN(c2ncc(Cl)c(Nc3ccc4c(c3)c3c(c(=O)n4C)OCC(F)(F)[C@H](C4CC4)N3)n2)C1 [12a CCT373566]  EDNRA (Homo sapiens)             pIC50           < 5.00
